target: SIK2 (Homo sapiens); experiment: SIK2 Enzymatic Assay High Version 2 (High ATP); assay type: biochemical
Sequence (Q9H0K1 whole entry, species assumed): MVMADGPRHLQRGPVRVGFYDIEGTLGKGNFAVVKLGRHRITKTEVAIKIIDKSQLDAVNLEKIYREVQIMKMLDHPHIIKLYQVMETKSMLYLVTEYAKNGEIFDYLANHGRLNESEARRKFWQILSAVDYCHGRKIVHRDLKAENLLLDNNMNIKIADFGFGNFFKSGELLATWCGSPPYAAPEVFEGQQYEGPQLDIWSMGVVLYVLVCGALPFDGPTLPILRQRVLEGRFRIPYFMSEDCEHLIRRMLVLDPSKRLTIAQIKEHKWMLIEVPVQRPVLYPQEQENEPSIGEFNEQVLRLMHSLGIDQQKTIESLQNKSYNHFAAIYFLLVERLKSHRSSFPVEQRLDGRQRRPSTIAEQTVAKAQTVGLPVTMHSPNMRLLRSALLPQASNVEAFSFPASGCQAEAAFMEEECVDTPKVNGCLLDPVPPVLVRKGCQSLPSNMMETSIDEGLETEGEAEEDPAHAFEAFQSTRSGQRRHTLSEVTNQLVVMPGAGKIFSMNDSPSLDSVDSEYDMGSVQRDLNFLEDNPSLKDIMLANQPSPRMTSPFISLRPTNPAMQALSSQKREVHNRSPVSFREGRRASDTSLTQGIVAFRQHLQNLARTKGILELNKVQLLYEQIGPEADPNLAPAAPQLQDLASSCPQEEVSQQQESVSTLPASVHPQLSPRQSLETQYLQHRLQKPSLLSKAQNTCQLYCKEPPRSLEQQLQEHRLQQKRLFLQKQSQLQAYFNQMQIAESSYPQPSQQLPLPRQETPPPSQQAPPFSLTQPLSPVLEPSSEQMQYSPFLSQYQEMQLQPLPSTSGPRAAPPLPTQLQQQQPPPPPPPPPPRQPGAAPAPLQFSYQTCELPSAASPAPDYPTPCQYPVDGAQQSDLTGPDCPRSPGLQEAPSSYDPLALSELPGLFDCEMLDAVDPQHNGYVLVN
endpoint: IC50

Worked examples, 6 molecules total:
                                   molecule  valuemeasured
0  N#Cc1cc(-c2ccn3nc(NC(=O)C4CC4)cc3c2)c(OCC2(O)CCCC2)cn1 [Example 42]        45.5 nM
1  Cc1cc(-c2ccn3nc(Nc4cn(C)nn4)cc3c2)c(O[C@H]2C[C@H]3COC[C@@H](C2)N3)cn1 [Example 380]     < 0.847 nM
2  CN1CCO[C@@H](COc2cnc(C#N)cc2-c2ccn3nc(NC(=O)C4CC4)cc3c2)C1 [Example 36]        20.1 nM
3  Cc1cc(-c2ccn3nc(NC(=O)C4CC4)cc3c2)c(OC[C@@H]2CCCN2C)cn1 [Example 572]        78.7 nM
4  Cc1cc(-c2ccn3nc(Nc4cccc(C(F)(F)F)n4)cc3c2)c(O[C@@H]2C[C@H]3COC[C@@H](C2)N3C)cn1 [Example 406]        1.83 nM
5  Cc1cc(-c2ccn3nc(Nc4cc(C)nc(C)n4)cc3c2)c(OC[C@@H]2CCN2C)cn1 [Example 521]        60.7 nM

Entry CC(=O)N1[C@@H]2COC[C@H]1C[C@@H](Oc1cnc(C)cc1-c1ccn3nc(NC(=O)C4CC4)cc3c1)C2 [Example 339] , IC50 reported as 2.31 nM

---

Give measured IC50 for each item. Keep answers brief.
molecular target: SIK2 (Homo sapiens); assay: SIK2 Enzymatic Assay High Version 2 (High ATP); format: biochemical; details: enzyme 6 nM, 6 mM ATP and 400 μM HDAC5tide (each 2× final concentration); 30 minutes pre-incubation, 2 hours; ADP-Glo Max luminescence; read-out: SIK2 high ATP IC50 (μM) (Test Example 2)
Give bare numbers, in µM.

In [3]: df
Out[3]:
                                   compound  endpoint  valuemeasured
0  Cc1cc(Nc2cc3cc(-c4cc(OC(F)F)ncc4OCC(C)(C)C(=O)N(C)C)ccn3n2)nc(C)n1 [Example 728]      IC50         0.0049
1  Cc1cc(-c2ccn3nc(NC(=O)C4CC4)cc3c2)c(OC[C@@H](O)C2CCCCC2)cn1 (single isomer, unassigned)      IC50         0.0195
2  Cc1cc(-c2ccn3nc(Nc4cc(C)nc(C(F)(F)F)n4)cc3c2)c(OCC(C)(C)O)cn1      IC50         0.0241

Report IC50 for every entry below.
1. CC(C)(C#N)COc1cnc(OCC(F)F)cc1-c1ccn2nc(Nc3cccnn3)cc2c1
2. Cc1cc(-c2ccn3nc(Nc4cnc(C(F)F)cn4)cc3c2)c(OC[C@H]2OCC[C@@H]2O)cn1
3. Cc1cc(-c2ccn3nc(Nc4cc(C)nc(C)n4)cc3c2)c(OCCN)cn1
4. Cc1cc(-c2ccn3nc(NC(=O)C4CC4)cc3c2)c(OC[C@]2(C#N)CCNC2)cn1 (single isomer, unassigned)
5. COc1cc(-c2ccn3nc(Nc4cc(C)nc(C)n4)cc3c2)c(OC[C@@H]2CNCCO2)cn1
6. Cc1cc(-c2ccn3nc(Nc4cc(C)nc(C)n4)cc3c2)c(O[C@H]2CCNC2)cn1

0.00121
0.0176
0.0494
0.013
0.00143
0.00921

Report IC50 for every entry below.
1. Cc1cc(-c2ccn3nc(NC(=O)C4CC4)cc3c2)c(O[C@H](CN)c2ccccc2)cn1
2. Cc1cc(-c2ccn3nc(Nc4cc(C)nc(C(C)(C)C)n4)cc3c2)c(OCC(C)(C)O)cn1
3. CO[C@]1(COc2cnc(C)cc2-c2ccn3nc(NC(=O)C4CC4)cc3c2)CCNC1 (single isomer, unassigned)

1. 0.00115
2. 0.0239
3. 0.0324
